- ASSAY_REMARKS: Dissoluvability Test (1): solubility in water or 1 wt % aqueous methylcellulose solution at 37° C.
- Type: physicochemical
- ASSAY_CONTEXT: 1 wt % aqueous methylcellulose solution, aqueous with cosolvent or surfactant or cyclodextrin, thermodynamic from solid; in a 1 wt % methylcellulose solution at 37° C.
VALUE_TYPE: solubility

-- ask Looking for the measured solubility of COc1cc2[nH]c(=O)c3nn(C(OC(=O)OC(C)C)C(C)C)nc3c(=O)c2cc1OC (stereo not shown) , can you help?
-- reply 15 to 20 µg/mL
